tested on: HT-29; assay: NCI tumour cell line growth inhibition, 48 h
The source made the active and inactive calls. Rule as the data show it: active = GI50 up to about 1.1 µM and inactive = higher.
measure: GI50

Solved cases below.
{"compound": "O=C(O)[C@H]1NC[C@H]2C(Br)=NO[C@@H]12", "target.system": "HT-29", "result": "> 100 µM (inactive)"}
{"compound": "C[C@@]12CCC(=O)c3coc(c31)C(=O)c1cc3c(cc12)C(=O)C=CC3=O [HELENAQUINONE]", "target.system": "HT-29", "result": "19.7 µM (inactive)"}

Below are 8 compounds. Give each one its GI50.
1. CC(=O)OCC1OC(n2nc(Cc3ccccc3)c(=S)[nH]c2=S)C(OC(C)=O)C(OC(C)=O)C1OC(C)=O (configuration not stated)
2. O=C(CCc1nnc(S)[nH]1)Nc1ccccc1Cl
3. CCCCc1c2c([n+]([O-])c3c1CCCC3)CCCC2
4. CC(=O)NC1C(OCC(=O)NC(C)C(=O)NC(CCC(=O)NCCCCCNc2ccc([N+](=O)[O-])c3[nH]c4ccccc4c(=O)c23)C(N)=O)C(O)C(CO)OC1(C)OCc1ccccc1 (configuration not stated)
5. Cc1ccc2c(c1)C(=O)C(C1OC(=O)c3ccccc31)C2 (configuration not stated)
6. CCN1C(=O)C(=C/C=C/c2ccc(OC)cc2)C(=O)N(CC)C1=S
7. COC(=O)C1=C(C)NC(C)=C(C(=O)OC)C1c1ccc(NO)cc1
8. COc1ccc(OCC(=O)O)c2c1CCC(C(C)C)C2=O (configuration not stated)

Reply:
41.8 µM (inactive)
> 100 µM (inactive)
> 100 µM (inactive)
38.6 µM (inactive)
29.2 µM (inactive)
22.6 µM (inactive)
7.01 µM (inactive)
> 100 µM (inactive)

# per-item lookup of GI50; items listed below
1. C=C1C(=O)CC2C(=O)C(C)(O)CC/C=C(\C)C(=O)CC12 (configuration not stated)
2. CC(=O)NC(CSC1=C2NC(=O)\C=C/C=C\C=C/C(C)C(O)CC(=O)/C(C)=C\CC(O)/C=C\C(C)C(O)C(C)C=C(C)C(=O)c3c(O)c(C)cc(c3C1=O)C2=O)C(=O)O (configuration not stated)
3. COc1ccccc1/C=C1\CCC(CN2CCOCC2)C1=O (configuration not stated)

Reply:
1: 17 µM (inactive); 2: 47.2 µM (inactive); 3: 11 µM (inactive)

Okay, here is my list. What is GI50 for each of these?
1. O=C1c2ccccc2C(=O)C1C(c1ccc([N+](=O)[O-])cc1)C1C(=O)c2ccccc2C1=O
2. CC(=O)OCC1OC(n2cnc(C(N)=S)c2N)C(OC(C)=O)C1OC(C)=O (configuration not stated)

Reply:
1. > 100 µM (inactive)
2. > 100 µM (inactive)

Parameter requested: GI50. Apply to each item below.
1. O=C1C(Cl)=C(N2CCN(c3ncccn3)CC2)C(=O)c2c(O)ccc(O)c21
2. COc1cccc(C2SCC(=O)N2c2ccc(-c3ccc(-n4c(-c5ccccc5)nc5ccccc5c4=O)cc3)cc2)c1OC (configuration not stated)

Reply:
1: 2.98 µM (inactive); 2: 68.4 µM (inactive)
